# credit: PubChem BioAssay

# EXPERIMENT: reversal of MRP1-mediated doxorubicin resistance, pilot screen, H69AR cells, doxorubicin co-treatment (AID 601)
# MEASUREMENT_CONTEXT: H69AR cells + 2 uM doxorubicin, CellTiter-Glo, 72 h; at 10 µM; stronger effect = higher value
Documented differential viability (reversal) across a set of compounds
Provide only the numeric value, understood in %.

                               compound  readout_number
0          O=S(=O)(NCCSc1ccccc1)c1cccs1            11.9
1  CCOC(=O)N1CCC(O)(c2cc(C)c(C)cc2C)CC1            9.24
2           O=C(Nc1ccc2snnc2c1)N1CCSCC1            2.63

Task: Reported differential viability (reversal) for CCCC(=O)N=C1SC2CS(=O)(=O)CC2N1c1ccc(CC)cc1 (configuration not stated) : what is it?
Output: 7.88

Task: Look at this compound and give its reported differential viability (reversal). O=C(NC1=NCCS1)NC12CC3CC(CC(C3)C1)C2
Output: 4.27

Task: # query: differential viability (reversal) of entry CC(C)CC(c1nnnn1CC1CCCO1)N1CCN(Cc2ccc3c(c2)OCO3)CC1 (configuration not stated)
Output: 8.46

Task: Entry CC(=O)c1cccc(S(=O)(=O)NCC(c2ccco2)N2CCCCC2)c1 (configuration not stated) has what differential viability (reversal)?
Output: 11.9

Task: differential viability (reversal) for CCOC(=O)C1=C(C)NC(SC(C)=O)=NC1c1ccc(OC(C)=O)c(OC)c1 (configuration not stated) ?
Output: -9.22

* * *

# EXPERIMENT: SK-BR-3 cell growth inhibitors, pilot screen, 24 h, human (AID 572);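 further: compound exposure lasted between 18 and 24 h rather than exactly 24 h; 100% = carrier-treated control wells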
# MEASUREMENT_CONTEXT: SK-BR-3 viability, CellTiter-Glo luminescence, at 10 µM, stronger effect = lower value
// viability lookup, one value per entry
# number only, unit % dropped from output

// below: answered molecules
                                   molecule  reported_property  readout_number
0  COc1ccc(OC)c(S(=O)(=O)N2c3ccccc3CC2C)c1 (stereo not given)          viability            82.5
1    CCOC(=O)c1c(NC(=O)OC)sc(C(=O)N(C)C)c1C          viability             109
2     CCN1C(=O)/C(=C2\C=Cc3ccccc3N2CC)OC1=S          viability            95.5
3  Cc1[nH]c(=O)[nH]c(=O)c1S(=O)(=O)Nc1ccc(Oc2ccccc2)cc1          viability              96
4  COc1ccc(C2C(C(=O)c3sc(C)nc3C)=C(O)C(=O)N2CCN2CCOCC2)cc1 (stereo not given)          viability              99

Task: Suppose we examine the molecule CCOc1ccc(C(=O)N2CCC(C(=O)c3ccc4c(c3)OCCO4)CC2)cc1 ; what viability value has been reported?
Output: 84.5

Task: Requested field: viability. Item: O=C(NCc1cccnc1)c1ccccn1
Output: 102

Task: viability for Cn1c(=O)c2c(nc(SCC(=O)O)n2Cc2cccc(C(F)(F)F)c2)n(C)c1=O ?
Output: 97.5

Task: Looking for the measured viability of CC(=O)OC1c2ccccc2C(=O)N1c1ccccc1C (stereo not given) , can you help?
Output: 100

Task: Would you kindly share the measured viability for N#Cc1nc(-c2ccco2)oc1N1CCN(c2cccc(Cl)c2)CC1 ?
Output: 87

Task: Endpoint output: viability of O=C(c1ccc2ccccc2n1)N1CCN(c2ccccc2)CC1 . Value?
Output: 88.5

Task: Which measured viability value corresponds to CCN1CCN(CCCNC(=O)C2c3ccccc3C(=O)N(C)C2c2ccc(OC)cc2)CC1 (stereo not given) ?
Output: 102

Task: # lookup: viability of O=C1CC(N2CCN(c3ccc(Cl)c(Cl)c3)CC2)C(=O)N1 (stereo not given)
Output: 67.5

Task: Entry O=C(C1CC1)N1CCC(c2nc(-c3ccc(S(=O)(=O)NCC4CCCO4)cc3)no2)CC1 (stereo not given) : reported viability = ?
Output: 74.5

Task: Recorded viability for CCN(CC)CCCNS(=O)(=O)c1ccc(OC)cc1 , please?
Output: 114

Task: What value of measured viability is listed for Clc1ccc(CSc2nnc(Cn3cnc4ccccc43)o2)cc1 ?
Output: 74.5

Task: viability for Cc1ccc(S(=O)(=O)N2CCC(C(=O)N3CCC[C@H]3C(=O)NCc3ccccc3)CC2)cc1 ?
Output: 117

Task: Which viability value is on record for O=C(OCC(=O)N1CCCC1)c1cncc(Br)c1 ?
Output: 106

Task: Entry O=C1CCCCCN1CSc1nc2ccccc2s1 has what viability?
Output: 123

Task: Please report the recorded viability for COc1ccccc1C(=O)n1nc(-c2ccccc2)nc1N .
Output: 91

* * *

# EXPERIMENT: reducers of endogenous Her2 protein level, primary screen, SKBR3 breast tumor cells, AlphaScreen, ATP viability (AID 461);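 further: percent of carrier control wells set as 100% viability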
# MEASUREMENT_CONTEXT: 18-24 h, measured here: SKBR3 viability, ATP luminescence, at 10 µM
The threshold is 90%. Values of viability beneath it are tagged Condition met; values meeting or exceeding it are tagged Condition not met.

These recorded examples may help you get a feel for the data.
In [3]: df
Out[3]:
                                   molecule        class_label
0  COc1cccc(N2CCN(CC(=O)Nc3nnc(-c4ccccc4)s3)CC2)c1      Condition met
1  Cc1cccc(-c2cc3nc4c(c(N5CCC6(CC5)OCCO6)n3n2)CCCC4)c1      Condition met
2  CCOC(=O)Cc1csc(NC(=O)CN(C)S(=O)(=O)c2ccc3c(c2)CCC(=O)N3)n1  Condition not met
3  COc1ccccc1N1CC(O)=C(c2nc3ccccc3c(=O)[nH]2)C1=N  Condition not met
4             O=C(CSc1nnc2ncccn12)N1CCCCCC1  Condition not met
5  CCOc1ncccc1C(=O)OCC(=O)Nc1ncc(C(F)(F)F)cc1Cl  Condition not met
6  COc1cc2c(=O)n(Cc3ccccc3)c(=O)n(CC(=O)NCc3ccco3)c2cc1OC  Condition not met
7  CCN(Cc1ccccc1)C(c1ccncc1)c1nnnn1C(C)(C)C (stereo not drawn)  Condition not met
8  CCSc1nnc(NC(=O)CSc2nnc(Cc3cccn3C)n2-c2ccc(C)cc2)s1  Condition not met
9  COc1cc(NC(=O)c2cc(OC)c(OC)c(OC)c2)c(OC)cc1NC(=O)CN1CCCCC1      Condition met

Task: Bench note: check whether Fc1ccc(-c2csc3nnc(SCc4cccnc4)n23)cc1 shows viability below 90%
Output: Condition not met

Task: Check if viability falls below 90% for COc1cc(NC(=O)Cc2cccs2)ccc1-n1cnnn1 .
Output: Condition not met

Task: is_below(viability, 90%) for CCOC(=O)c1ccccc1NC(=O)CSc1nc2c(c(=O)n(C)c(=O)n2C)n1C ?
Output: Condition not met

Task: Is viability of COc1ccccc1NC(=O)c1nnn(CC(=O)Nc2ccccc2)c1N strictly below 90%?
Output: Condition not met

Task: Record O=C(CSc1ncnc2c1oc1ccccc12)Nc1ccccc1F : is its viability strictly below 90%?
Output: Condition not met

Task: Hi there! Is viability for O=C(NC1CCCCCC1)C1c2ccccc2C(=O)N1Cc1cccnc1 (stereo not drawn) below 90%, do you know?
Output: Condition not met

Task: Check if viability falls below 90% for CC1(C)Cc2nc3oc4c(N(CCO)Cc5ccccc5)ncnc4c3cc2CO1 .
Output: Condition not met

Task: Just wondering, is viability of CCOc1ccc(C2/C(=C(/O)c3ccc(OC)cc3)C(=O)C(=O)N2c2cc(C)on2)cc1OC (stereo not drawn) below 90%?
Output: Condition met

Task: Determine whether this molecule shows viability lower than 90% (ties excluded): O=C(CSCc1cnn(-c2ccccc2)c1-n1cccc1)NCC1CCCO1 (stereo not drawn)
Output: Condition not met

Task: Input COCCn1c(SCC(=O)c2ccccc2)nc2c(c1=O)SC(C)C2 (stereo not drawn) ; condition: viability strictly below 90%. Does it hold?
Output: Condition not met

Task: Identify whether the molecule COc1ccc(OCc2cccc(C(=O)O)c2)cc1 records viability below 90%.
Output: Condition not met

Task: Below 90% on viability? Entry Cc1ccc(NC(=O)c2ccc(NS(=O)(=O)c3c(C)noc3C)cc2)cc1C
Output: Condition not met

Task: # TODO verify viability < 90% strictly for this molecule: COc1ccc(-c2cc(C(F)(F)F)nc(SCC(=O)NCc3ccco3)n2)cc1OC
Output: Condition not met

Task: Consider CCN(CC)S(=O)(=O)c1ccc(S(=O)(=O)N(Cc2ccccn2)Cc2ccco2)cc1 . Does its viability lie strictly below 90%?
Output: Condition not met

* * *

Each entry below carries its reported viability.
# EXPERIMENT: SK-BR-3 cell growth inhibitors, pilot screen, 24 h, human (AID 572);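 further: compound exposure lasted between 18 and 24 h rather than exactly 24 h; 100% = carrier-treated control wells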
# MEASUREMENT_CONTEXT: SK-BR-3 viability, CellTiter-Glo luminescence, at 10 µM, stronger effect = lower value
Dear colleague, please return just the value in %, with no unit written.

# count of solved cases: 3
In [3]: df
Out[3]:
                                   compound  readout_number
0  O=C(Cn1nc(C(F)(F)F)c2c1CCCC2)NCCN1CCOCC1             110
1  CCOc1ccc(Oc2nc(Nc3ccc(C)cc3)nc(N(C)C)n2)nn1            85.5
2  COc1cc(NC(=O)C(C)Oc2ccccc2)c(C(=O)O)cc1OC (stereo not drawn)             116

Task: Name the recorded viability for O=C(OCc1nnc(-c2ccc(Cl)cc2)o1)c1ccc(=O)n(Cc2ccccc2)n1 .
Output: 84.5

Task: Tell me the measured viability of O=S(=O)(NCc1ccccc1)c1ccc2c(c1)OCCO2 , please.
Output: 124

Task: Entry C=CCNC(=O)c1cc(-c2ccccc2O)on1 : reported viability = ?
Output: 97

Task: What value of viability has been recorded for this entry: CCOCCCNC(=O)CS(=O)(=O)Cc1nc(-c2cccc(OC)c2)oc1C
Output: 128

Task: Which viability is listed for CCOC(=O)CN1CC23C=CC(O2)C(C(=O)Nc2ccc(OC)cc2OC)C3C1=O (stereo not drawn) ?
Output: 99
